Attribution: patent US20260125451A1

Emax listing for selected binders.
target-system: BAFF (PeproTech, Cat: 310-13) (UniProt Q9Y275 134-285)
Sequence (Q9Y275 134-285 limits assumed): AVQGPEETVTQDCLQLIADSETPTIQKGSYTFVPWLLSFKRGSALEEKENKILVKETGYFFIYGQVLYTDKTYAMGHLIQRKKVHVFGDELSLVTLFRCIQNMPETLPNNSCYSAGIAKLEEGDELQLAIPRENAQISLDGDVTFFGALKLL
procedure-details: ELISA, BAFF coated, anti-human Fc-HRP, OD450

binder	Emax [nM]
B575702 (Fc fusion, TACI-BCMA fusion protein; also called BCMA-ECD-TACI-d2-Fc) MLQMAGQCSQNEYFDSLLHACIPCQLRCSSNTPPLTCQRYCNASVTNSVKGTNALSCRKEQGKFYDHLLRDCISCASICGQHPKQCAYFCENKLRSPGDKTHTCPPCPAPEAEGAPSVFLFPPKPKDTLMISRTPEVTCVVVDVSHEDPEVKFNWYVDGVEVHNAKTKPREEQYNSTYRVVSVLTVLHQDWLNGKEYKCKVSNKALPSSIEKTISKAKGQPREPQVYTLPPSRDELTKNQVSLTCLVKGFYPSDIAVEWESNGQPENNYKTTPPVLDSDGSFFLYSKLTVDKSRWQQGNVFSCSVMHEALHNHYTQKSLSLSPGK	2.24
Telitacicept (RCT-18) (Fc fusion, Positive control, TACI-Fc) SRVDQEERFPQGLWTGVAMRSCPEEQYWDPLLGTCMSCKTICNHQSQRTCAAFCRSLSCRKEQGKFYDHLLRDCISCASICGQHPKQCAYFCENKLRSPVNLPPELDKTHTCPPCPAPEAEGAPSVFLFPPKPKDTLMISRTPEVTCVVVDVSHEDPEVKFNWYVDGVEVHNAKTKPREEQYNSTYRVVSVLTVLHQDWLNGKEYKCKVSNKALPSSIEKTISKAKGQPREPQVYTLPPSRDELTKNQVSLTCLVKGFYPSDIAVEWESNGQPENNYKTTPPVLDSDGSFFLYSKLTVDKSRWQQGNVFSCSVMHEALHNHYTQKSLSLSPGK	2.28
B575703 (Fc fusion, TACI-BCMA fusion protein; also called TACI-T2-BCMA-ECD-Fc) SRVDQEERFPQGLWTGVAMRSCPEEQYWDPLLGTCMSCKTICNHQSQRTCAAFCRSLSCRKEQGKFYDHLLRDCISCASICGQHPKQCAYFCENKLRSPVNLPPELMLQMAGQCSQNEYFDSLLHACIPCQLRCSSNTPPLTCQRYCNASVTNSVKGTNADKTHTCPPCPAPEAEGAPSVFLFPPKPKDTLMISRTPEVTCVVVDVSHEDPEVKFNWYVDGVEVHNAKTKPREEQYNSTYRVVSVLTVLHQDWLNGKEYKCKVSNKALPSSIEKTISKAKGQPREPQVYTLPPSRDELTKNQVSLTCLVKGFYPSDIAVEWESNGQPENNYKTTPPVLDSDGSFFLYSKLTVDKSRWQQGNVFSCSVMHEALHNHYTQKSLSLSPGK	2.43
B575701 (Fc fusion, TACI-BCMA fusion protein; also called TACI-d2-BCMA-ECD-Fc) LSCRKEQGKFYDHLLRDCISCASICGQHPKQCAYFCENKLRSPGMLQMAGQCSQNEYFDSLLHACIPCQLRCSSNTPPLTCQRYCNASVTNSVKGTNADKTHTCPPCPAPEAEGAPSVFLFPPKPKDTLMISRTPEVTCVVVDVSHEDPEVKFNWYVDGVEVHNAKTKPREEQYNSTYRVVSVLTVLHQDWLNGKEYKCKVSNKALPSSIEKTISKAKGQPREPQVYTLPPSRDELTKNQVSLTCLVKGFYPSDIAVEWESNGQPENNYKTTPPVLDSDGSFFLYSKLTVDKSRWQQGNVFSCSVMHEALHNHYTQKSLSLSPGK	2.31
B575704 (Fc fusion, TACI-BCMA fusion protein; also called BCMA-ECD-TACI-T2-Fc) MLQMAGQCSQNEYFDSLLHACIPCQLRCSSNTPPLTCQRYCNASVTNSVKGTNASRVDQEERFPQGLWTGVAMRSCPEEQYWDPLLGTCMSCKTICNHQSQRTCAAFCRSLSCRKEQGKFYDHLLRDCISCASICGQHPKQCAYFCENKLRSPVNLPPELDKTHTCPPCPAPEAEGAPSVFLFPPKPKDTLMISRTPEVTCVVVDVSHEDPEVKFNWYVDGVEVHNAKTKPREEQYNSTYRVVSVLTVLHQDWLNGKEYKCKVSNKALPSSIEKTISKAKGQPREPQVYTLPPSRDELTKNQVSLTCLVKGFYPSDIAVEWESNGQPENNYKTTPPVLDSDGSFFLYSKLTVDKSRWQQGNVFSCSVMHEALHNHYTQKSLSLSPGK	2.29
